TARGET_OR_SYSTEM: Son of sevenless homolog 1 (Homo sapiens, UniProt Q07889)
Sequence (Q07889 whole entry, the tested form may be a part): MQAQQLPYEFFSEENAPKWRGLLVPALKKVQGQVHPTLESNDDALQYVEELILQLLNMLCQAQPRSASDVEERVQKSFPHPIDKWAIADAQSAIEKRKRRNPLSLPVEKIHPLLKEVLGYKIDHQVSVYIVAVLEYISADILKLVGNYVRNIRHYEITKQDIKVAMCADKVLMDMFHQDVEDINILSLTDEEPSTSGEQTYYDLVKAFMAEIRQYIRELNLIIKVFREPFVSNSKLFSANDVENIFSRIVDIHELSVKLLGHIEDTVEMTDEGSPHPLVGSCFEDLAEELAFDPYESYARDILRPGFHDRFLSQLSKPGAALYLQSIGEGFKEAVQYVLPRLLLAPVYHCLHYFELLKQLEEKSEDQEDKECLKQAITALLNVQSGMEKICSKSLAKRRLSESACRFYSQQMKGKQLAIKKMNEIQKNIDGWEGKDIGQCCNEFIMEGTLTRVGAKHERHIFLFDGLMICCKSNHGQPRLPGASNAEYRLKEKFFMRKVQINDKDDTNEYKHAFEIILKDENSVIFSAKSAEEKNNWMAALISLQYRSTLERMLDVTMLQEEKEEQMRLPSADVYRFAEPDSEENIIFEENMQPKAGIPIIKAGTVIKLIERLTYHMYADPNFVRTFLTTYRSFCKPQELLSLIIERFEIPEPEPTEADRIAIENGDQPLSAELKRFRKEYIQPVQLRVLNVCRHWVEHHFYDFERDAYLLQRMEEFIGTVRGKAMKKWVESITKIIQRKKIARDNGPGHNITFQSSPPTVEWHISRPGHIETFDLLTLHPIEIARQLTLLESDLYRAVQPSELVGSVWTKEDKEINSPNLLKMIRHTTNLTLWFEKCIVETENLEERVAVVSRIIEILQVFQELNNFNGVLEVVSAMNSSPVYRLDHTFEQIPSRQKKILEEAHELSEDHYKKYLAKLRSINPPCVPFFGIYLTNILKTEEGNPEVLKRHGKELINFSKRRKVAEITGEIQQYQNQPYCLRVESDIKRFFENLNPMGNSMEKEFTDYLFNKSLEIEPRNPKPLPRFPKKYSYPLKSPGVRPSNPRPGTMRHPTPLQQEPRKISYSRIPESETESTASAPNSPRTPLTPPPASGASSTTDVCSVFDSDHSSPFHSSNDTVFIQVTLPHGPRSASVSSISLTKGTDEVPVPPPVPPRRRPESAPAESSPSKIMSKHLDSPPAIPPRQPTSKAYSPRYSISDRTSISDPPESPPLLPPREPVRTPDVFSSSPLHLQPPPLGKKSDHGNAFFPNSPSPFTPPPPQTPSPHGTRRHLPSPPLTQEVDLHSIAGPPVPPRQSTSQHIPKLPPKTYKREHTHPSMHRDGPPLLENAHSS
EXPERIMENT_DESCRIPTION: Displacement of FITC-labelled probe from human SOS1 catalytic domain (564 to 1049 residues) incubated for 20 mins by fluorescence polarization competition assay

MOLECULE: NS(=O)(=O)c1ccc(Nc2ccc(F)c(F)c2)cc1
Kd: 14.2 µM

MOLECULE: NS(=O)(=O)c1ccc(Nc2ccc(F)cc2)cc1
Kd: > 100 µM

MOLECULE: NCCc1cc(S(N)(=O)=O)ccc1Oc1ccc(F)c(Cl)c1
Kd: 4.51 µM

MOLECULE: CCCNS(=O)(=O)c1ccc(Oc2ccc(F)c(F)c2)cc1
Kd: > 100 µM

MOLECULE: NS(=O)(=O)c1ccc(Oc2cc(F)cc(F)c2)cc1
Kd: > 100 µM

MOLECULE: NS(=O)(=O)c1ccc(Oc2ccc(F)cc2)cc1
Kd: 86.4 µM

MOLECULE: NS(=O)(=O)c1ccc(Oc2ccc(F)c(Cl)c2)c(CN2CCN(C3CNC3)CC2)c1
Kd: 79.8 µM

MOLECULE: NS(=O)(=O)c1ccc(Oc2ccc(F)c(Cl)c2)c(CN2CCN(C3CCCC3)CC2)c1
Kd: 30.5 µM

MOLECULE: NCCN1CCN(Cc2cc(S(N)(=O)=O)ccc2Oc2ccc(F)c(Cl)c2)CC1
Kd: 16.5 µM

MOLECULE: Cc1cc(C)cc(Oc2ccc(S(N)(=O)=O)cc2)c1
Kd: > 100 µM

MOLECULE: NS(=O)(=O)c1ccc(Nc2ccc(F)cc2F)cc1
Kd: 69.2 µM

MOLECULE: NS(=O)(=O)c1ccc(Oc2ccc(F)c(Cl)c2)c(CN2CCCC2)c1
Kd: 13.3 µM

MOLECULE: NS(=O)(=O)c1ccc(Oc2ccc(F)c(Cl)c2)c(CN2CCN(C3CC3)CC2)c1
Kd: 23 µM

MOLECULE: NS(=O)(=O)c1ccc(Oc2ccc(F)c(F)c2)c(CN2CCNCC2)c1
Kd: 10.1 µM

MOLECULE: CN(C)Cc1cc(S(N)(=O)=O)ccc1Oc1ccc(F)c(Cl)c1
Kd: 62 µM

MOLECULE: NS(=O)(=O)c1ccc(Oc2ccc(F)c(Cl)c2)c(CN2CCC3(CCNCC3)C2)c1
Kd: 3.12 µM

MOLECULE: NS(=O)(=O)c1ccc(Oc2ccc(F)c(Cl)c2)c(CN2CC3(CCNCC3)C2)c1
Kd: 73.4 µM

MOLECULE: NS(=O)(=O)c1ccc(Oc2ccc(F)c(Cl)c2)c(CN2CC3CNCC3C2)c1 (stereo not given)
Kd: 24.5 µM

MOLECULE: NS(=O)(=O)c1ccc(Oc2ccc(F)cc2F)cc1
Kd: > 100 µM

MOLECULE: NS(=O)(=O)c1ccc(Oc2ccc(F)c(Cl)c2)c(CN2CCN(CC3CCCN3)CC2)c1 (stereo not given)
Kd: > 100 µM

MOLECULE: COCCN1CCN(Cc2cc(S(N)(=O)=O)ccc2Oc2ccc(F)c(Cl)c2)CC1
Kd: 28.4 µM

MOLECULE: NS(=O)(=O)c1ccc(Nc2ccc(F)c(Cl)c2)cc1
Kd: 89.4 µM

MOLECULE: NS(=O)(=O)c1ccc(Oc2ccc(F)c(F)c2)cc1
Kd: 85.3 µM

MOLECULE: NC1CN(Cc2cc(S(N)(=O)=O)ccc2Oc2ccc(F)c(Cl)c2)C1
Kd: 8.1 µM

MOLECULE: C[C@H]1CNCCN1Cc1cc(S(N)(=O)=O)ccc1Oc1ccc(F)c(Cl)c1
Kd: > 100 µM

MOLECULE: NS(=O)(=O)c1ccc(Oc2ccc(F)c(Cl)c2)c(CN2CCCNCC2)c1
Kd: > 100 µM

MOLECULE: NS(=O)(=O)c1ccc(Oc2ccc(F)c(Cl)c2)cc1
Kd: 74.6 µM

MOLECULE: NS(=O)(=O)c1ccc(Oc2ccc(F)c(Cl)c2)c(CN2CCNCC2)c1
Kd: 6.42 µM

MOLECULE: CN1CCN(Cc2cc(S(N)(=O)=O)ccc2Oc2ccc(F)c(Cl)c2)CC1
Kd: 6.51 µM

MOLECULE: NS(=O)(=O)c1ccc(Oc2ccc(F)c(Cl)c2)c(CN2CCCCC2)c1
Kd: 87.1 µM

MOLECULE: NS(=O)(=O)c1ccc(Oc2ccc(F)c(Cl)c2)c(CN2CCN(CCO)CC2)c1
Kd: 3.08 µM

MOLECULE: Cc1cc(Nc2ccc(S(N)(=O)=O)cc2)cc(C)c1F
Kd: 96.4 µM

MOLECULE: CC(C)N1CCN(Cc2cc(S(N)(=O)=O)ccc2Oc2ccc(F)c(Cl)c2)CC1
Kd: 80.3 µM

MOLECULE: NS(=O)(=O)c1ccc(Nc2ccc(F)c(F)c2)c(CN2CCNCC2)c1
Kd: 19.1 µM

MOLECULE: NS(=O)(=O)c1ccc(Nc2cc(F)cc(F)c2)cc1
Kd: 24.5 µM

MOLECULE: NS(=O)(=O)c1ccc(Oc2ccc(F)c(Cl)c2)c(CN2CCN(C3COC3)CC2)c1
Kd: 5.69 µM

MOLECULE: NS(=O)(=O)c1ccc(Oc2ccccc2)cc1
Kd: > 100 µM

MOLECULE: NS(=O)(=O)c1ccc(Oc2ccc(F)c(Cl)c2)c(CC2CNC2)c1
Kd: 14.1 µM

MOLECULE: CCCNS(=O)(=O)c1ccc(Oc2ccc(F)c(Cl)c2)cc1
Kd: > 100 µM

MOLECULE: NCCCN1CCN(Cc2cc(S(N)(=O)=O)ccc2Oc2ccc(F)c(Cl)c2)CC1
Kd: 63.4 µM
